# TARGET_UNDER_TEST: L-lactate dehydrogenase (Plasmodium falciparum (isolate CDC / Honduras))
# MEASUREMENT_NOTES: PfLDH activity inhibition – cell lysate, 3D7 strain, counter-screen for P. falciparum growth inhibition project (AID 2304);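 also: 0% = vehicle and 100% = reference inhibitor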
# MEASUREMENT_PARAMETERS: P. falciparum 3D7 crude extract, LDH APAD/NBT absorbance; at 2 µM; stronger effect = higher value
ASSAY_METRIC: inhibition (%)
Express your answer in %, writing the number without its unit.

COMPOUND	UNITS_SYMBOL	inhibition
O=c1cc(NCCCNCc2cccc(I)c2)[nH]c2ccccc12	%	-1

Measured inhibition of CC1CCCCN1CCCNc1nc(NCc2ccccc2)c2ccccc2n1 (stereo not given) : 0

Per the record, Cc1cc(N[C@@H](Cc2ccccc2)C(=O)NCc2cccs2)nc(NCCc2ccccn2)n1 has inhibition of -2

Quick note, inhibition for CN(Cc1ccc(C#N)cc1)C1CCN(c2cc(NC(=O)c3ccc(F)cc3)ccn2)CC1 landed at -5

Sure, the documented inhibition for Cc1ccc2nc3ccccc3c(NCCN3CCN(C)CC3)c2c1 is -7

Numbers sourced from PubChem BioAssay.
